The following molecules were reported with pIC50 values on MAGL (Homo sapiens, UniProt Q99685) in different studies.
Sequence (Q99685 whole entry, species assumed): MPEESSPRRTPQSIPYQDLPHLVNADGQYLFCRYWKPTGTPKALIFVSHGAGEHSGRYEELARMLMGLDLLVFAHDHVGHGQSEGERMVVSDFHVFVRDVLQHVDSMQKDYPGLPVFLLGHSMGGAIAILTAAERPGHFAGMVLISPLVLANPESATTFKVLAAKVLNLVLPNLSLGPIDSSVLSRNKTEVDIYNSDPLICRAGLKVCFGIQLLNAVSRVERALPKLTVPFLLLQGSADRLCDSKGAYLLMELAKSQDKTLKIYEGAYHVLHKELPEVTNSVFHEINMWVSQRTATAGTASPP
pIC50: −log10 of the molar value.
readout: pIC50

O=C(c1ccc2c(ccn2-c2ccc(F)cc2)c1)N1CC(N2CCN(C(=O)C(F)(F)F)CC2)C1 : 8.05
O=C1CO[C@H]2CCN(C(=O)N3CCC(C#Cc4ccccc4C(F)(F)F)CC3)C[C@H]2N1 : 7.74

a: O=C(c1ccc(-c2cccc(C(F)(F)F)c2)cc1)N1CC(NC2CN(C(=O)c3ccccc3)CC2F)C1 (stereo not shown)
b: O=C1CO[C@H]2CCN(C(=O)N3CC(c4ccc(-c5ccccc5C(F)F)cc4)C3)C[C@H]2N1
c: COc1cccc(C(=O)N2CCN3C[C@@H](c4cc(C(F)F)c(Cl)cn4)OC[C@@H]3C2)c1Cl
Rank descending by pIC50. Reply with the item labels sorted in the order that was asked for.
b, a, c
(b: 10.00, a: 7.38, c: 7.05)

* * *

The following molecules were reported with pIC50 values on MAGL (Homo sapiens, UniProt Q99685) in different studies.
pIC50: −log10 of the molar value.
readout: pIC50

# example entries with known answers
COc1cccc(C(=O)N2CCN3C[C@H](c4sc(C)nc4C)OC[C@H]3C2)c1Cl (single isomer, unassigned) : 5.86
O=C(c1ccc2nc(-c3ccccc3)sc2c1)N1CC(N2CCN(c3nccs3)C(=O)C2)C1 : 7.01
O=C(c1ccccc1)N1CCN(C2CN(C(=O)c3ccc4c(ccn4-c4ccncc4)c3)C2)CC1 : 5.76
CN(C(=O)Cc1cc(C(F)(F)F)ccc1Cl)C1CCN(C(=O)N2CC[C@@H]3OCC(=O)N[C@@H]3C2)CC1 : 5.94

a: O=C(c1ccc(CNc2cccc(Cl)c2)cc1)N1CC(N2CCN(C(=O)C(F)(F)F)CC2)C1
b: O=C(c1cscn1)N1CC(C2CCN(C(=O)c3sc4cc(C(F)(F)F)ccc4c3Cl)CC2)C1
Which shows the larger pIC50 value: a or b ? // caller expects the label of the chosen entry
b

* * *

The following compounds were reported with IC50 values on MAGL (Homo sapiens, UniProt Q99685) in different studies.
readout: IC50 (nM)

# example entries with known answers
O=C(c1cnc(NCc2ccccc2)s1)N1CC(N2CCN(C(=O)c3nccs3)CC2)C1 : 1500
O=C1CO[C@H]2CCN(C(=O)N3CC(OCc4c(Cl)cccc4Cl)C3)C[C@H]2N1 : 27.8

P: O=C(c1ccc(-c2cn(CC3COC3)nn2)cc1)N1CCN(c2nc3nc(Cl)ccc3o2)CC1
Q: O=C1CO[C@H]2CCN(C(=O)N3C[C@@H]4C[C@H](OCc5ccc(C(F)(F)F)cc5F)[C@H]3C4)C[C@H]2N1 (relative stereo)
Which shows the larger IC50 value: P or Q ? // caller expects the label of the chosen entry
P
(P: 5550 nM, Q: 1050 nM)

* * *

The following molecules were reported with pIC50 values on MAGL (Homo sapiens, UniProt Q99685) in different studies.
pIC50: −log10 of the molar value.
readout: pIC50

O=C(c1nccs1)N1CC[C@H](NC2CN(C(=O)c3sc4cc(-c5ccc(C(F)(F)F)cc5)ccc4c3F)C2)C1 : 7.80

I: O=C(c1ccc2c(c1)ncn2CC(F)(F)F)N1CC(N2CCN(C(=O)c3nccs3)CC2)C1
II: O=C(c1cnc2c(ccn2Cc2ccc(F)cc2)c1)N1CC(N2CCN(C(=O)c3nccs3)CC2)C1
III: O=C(c1ccc2c(c1)[nH]c(=O)n2CCC(F)(F)F)N1CC(C2CCN(C(=O)c3nccs3)CC2)C1
IV: O=C(c1nccs1)N1CC(N2CCN(C(=O)c3cc4cc(C(F)(F)F)ccc4s3)C(c3ccccc3)C2)C1 (stereo not shown)
List by increasing pIC50. Reply with the item labels sorted in the order that was asked for.
IV, I, III, II
